Reported Srxn1-GFP intensity median modified Z-score is given for each of the following compounds.
Tested on: HepG2 Srxn1-GFP reporter cells (+30 nM CDDO-Me)
Assay: Srxn1-GFP intensity median modified Z-score relative to plate median; higher = stronger NRF2 / oxidative stress reporter activation, active = hit call of the paper
Conditions: 10 µM; exposure time: 24h
Out of some 2,300 compounds screened, about 330 (14%) showed activity. A selection follows.
// no unit string in output, number only

Below, each entry is followed by its recorded Srxn1-GFP intensity median modified Z-score result.
[[record]]
compound = "CC(=O)[C@@]1(O)CCC2C3=CC(Cl)=C4CC(=O)C5CC5[C@]4(C)C3CC[C@@]21C (stereo not given in full)"
numeric_result = -0.345

[[record]]
compound = "CC(NC(CCc1ccccc1)C(=O)O)C(=O)N1CCCC1C(=O)O (stereo not given)"
numeric_result = 0.185

[[record]]
compound = "CC(C)=CCc1c2c(c3occ(-c4ccc(O)c(O)c4)c(=O)c3c1O)C=CC(C)(C)O2"
numeric_result = 156

[[record]]
compound = "NC(Cc1cc(I)c(Oc2cc(I)c(O)c(I)c2)c(I)c1)C(=O)O (stereo not given)"
numeric_result = -0.572

[[record]]
compound = "Cc1cn[nH]c1"
numeric_result = 1.06


Q: Give the measured Srxn1-GFP intensity median modified Z-score of CC(C)=CCc1c2c(c3occ(-c4ccc(O)cc4)c(=O)c3c1O)C=CC(C)(C)O2 .
A: 1.14

Q: Would you kindly repeat that for COc1ccc(-c2coc3c4c(c(CC=C(C)C)c(O)c3c2=O)OC(C)(C)C=C4)cc1OC ?
A: -0.479

Q: Note, next up: COC1=CC(=O)C(=O)C=C1C=CCc1ccccc1
A: 9.05

Q: Thanks! And COC1=CC(=O)C(C(=O)c2ccccc2)=CC1=O ?
A: -0.559

Q: Same for NC(Cc1cc(I)c(Oc2ccc(O)c(I)c2)c(I)c1)C(=O)O (stereo not given)
A: -0.0135

* * *

System: HepG2 Srxn1-GFP reporter cells (+30 nM CDDO-Me)
Test: Srxn1-GFP intensity median modified Z-score relative to plate median; higher = stronger NRF2 / oxidative stress reporter activation, active = hit call of the paper
Conditions: 10 µM; exposure time: 24h
The campaign covered roughly 2,300 compounds. About 330 (14%) showed activity. Not all results are given here.
Reported Srxn1-GFP intensity median modified Z-score values follow for various molecules

Worked examples follow.
[[record]]
molecule = "COc1ccc(=NS(=O)(=O)c2ccc(N)cc2)[nH]n1"
target_desc = "HepG2 Srxn1-GFP reporter cells (+30 nM CDDO-Me)"
result = "-0.327 (inactive)"

[[record]]
molecule = "COc1ccc(C(=O)O)c(O)c1OC"
target_desc = "HepG2 Srxn1-GFP reporter cells (+30 nM CDDO-Me)"
result = "-0.416 (inactive)"

[[record]]
molecule = "CCCCC(=O)N(Cc1ccc(-c2ccccc2-c2nn[nH]n2)cc1)C(C(=O)O)C(C)C (stereo unspecified)"
target_desc = "HepG2 Srxn1-GFP reporter cells (+30 nM CDDO-Me)"
result = "-1.02 (inactive)"

[[record]]
molecule = "CCN(CC)CCNC(=O)COc1ccc(OC)cc1"
target_desc = "HepG2 Srxn1-GFP reporter cells (+30 nM CDDO-Me)"
result = "-0.25 (inactive)"

[[record]]
molecule = "Cc1coc2c1C(=O)C(=O)c1c-2ccc2c1CCCC2(C)C"
target_desc = "HepG2 Srxn1-GFP reporter cells (+30 nM CDDO-Me)"
result = "2.22 (active)"


Q: Which Srxn1-GFP intensity median modified Z-score is listed for O=C(O)CN(CCN(CC(=O)O)CC(=O)O)CCN(CC(=O)O)CC(=O)O ?
A: -0.735 (inactive)

* * *

Tested on: HepG2 Srxn1-GFP reporter cells (+30 nM CDDO-Me)
Experiment: Srxn1-GFP intensity median modified Z-score relative to plate median; higher = stronger NRF2 / oxidative stress reporter activation, active = hit call of the paper
Conditions: 10 µM; exposure time: 24h
The campaign covered roughly 2,300 compounds. About 330 (14%) showed activity.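 How the source made its calls: active = median modified Z-score above 1.96; inactive = 1.96 or below.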 A selection follows.
Your answer must be one of the following: active, inactive

[[record]]
compound = "CN1C(C(=O)N=c2cccc[nH]2)C(=O)c2sc(Cl)cc2S1(=O)=O (centres undefined)"
cat = "inactive"

[[record]]
compound = "COc1cc(O)c2c(=O)c(OC)c(-c3ccc(OC)c(OC)c3)oc2c1"
cat = "inactive"

[[record]]
compound = "CC(=O)C12OC(C)(c3ccccc3)OC1CC1C3CC=C4CC(=O)CCC4(C)C3CCC12C (centres undefined)"
cat = "active"


Q: What classification did CN(C)c1ccc(C(=C2C=CC(=[N+](C)C)C=C2)c2ccc(N(C)C)cc2)cc1 end up with in this test?
A: active

* * *

Test system: HepG2 Srxn1-GFP reporter cells (+30 nM CDDO-Me)
Assay: Srxn1-GFP intensity median modified Z-score relative to plate median; higher = stronger NRF2 / oxidative stress reporter activation, active = hit call of the paper
Details: 10 µM; exposure time: 24h
Hit rate of the full screen: of about 2,300 compounds, about 330 (14%) showed activity.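 The calls were made as follows: active = median modified Z-score above 1.96; inactive = 1.96 or below.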 The list is a sample of the results.
Field 'call' accepts active, inactive

The examples below pair each entry with its known result.
[[record]]
compound = "CC(c1ncncc1F)[C@](O)(Cn1cncn1)c1ccc(F)cc1F (some centres undefined)"
cat = "inactive"

[[record]]
compound = "CC(=O)NC1C(O)OC(CO)C(O)C1O (centres undefined)"
cat = "inactive"

[[record]]
compound = "CCN(CC)Cc1ccc(N=c2cc[nH]c3cc(Cl)ccc23)cc1O"
cat = "active"


Next, consider the following compound.
Q: Returns: the outcome recorded for COc1cc(C)c(C(=O)Oc2cc(C)c(C(=O)O)c(O)c2C)c(OC)c1C in this assay.
A: inactive

* * *

Tested on: HepG2 Srxn1-GFP reporter cells (+30 nM CDDO-Me)
Assay: Srxn1-GFP intensity median modified Z-score relative to plate median; higher = stronger NRF2 / oxidative stress reporter activation, active = hit call of the paper
Conditions: 10 µM; exposure time: 24h
Among all 2,300 compounds or so, about 330 (14%) showed activity. A selection follows.
Returns Met if the recorded Srxn1-GFP intensity median modified Z-score is greater than or equal to -0.2, and Not met otherwise.

Solved cases below.
[[record]]
smiles = "O=C(O)CCCCC(=O)O"
cat = "Met"

[[record]]
smiles = "Nc1ccc(S(=O)(=O)N=c2[nH]ccs2)cc1"
cat = "Not met"

[[record]]
smiles = "Oc1ccc(OCc2ccccc2)cc1"
cat = "Met"

[[record]]
smiles = "O=c1c(O)c(-c2ccc(O)cc2O)oc2cc(O)cc(O)c12"
cat = "Not met"

[[record]]
smiles = "C[N+](C)(CCOc1ccccc1)Cc1ccccc1"
cat = "Met"


Alright, here's another molecule for you.
Q: Decide: is the reported value of Srxn1-GFP intensity median modified Z-score for C#CCCCCCCCCCCCc1ccco1 equal to or greater than -0.2?
A: Not met

* * *

Test system: HepG2 Srxn1-GFP reporter cells (+30 nM CDDO-Me)
Assay: Srxn1-GFP intensity median modified Z-score relative to plate median; higher = stronger NRF2 / oxidative stress reporter activation, active = hit call of the paper
Conditions: 10 µM; exposure time: 24h
About 330 (14%) of roughly 2,300 compounds showed activity. Only a sample is shown.
endpoint_label: Srxn1-GFP intensity median modified Z-score
Lab note: jot the number down without any unit.

Answered examples (5):
[[record]]
molecule = "CC(C)(Sc1cc(C(C)(C)C)c(O)c(C(C)(C)C)c1)Sc1cc(C(C)(C)C)c(O)c(C(C)(C)C)c1"
target_desc = "HepG2 Srxn1-GFP reporter cells (+30 nM CDDO-Me)"
numeric_result = -0.0593

[[record]]
molecule = "CC(=O)O[C@H]1C[C@@H](OC(C)=O)C(C)(C)C2C[C@@H](OC(C)=O)[C@@]3(C)C4=CC(=O)O[C@@H](c5ccoc5)[C@]4(C)CCC3[C@]21C (stereo partly specified)"
target_desc = "HepG2 Srxn1-GFP reporter cells (+30 nM CDDO-Me)"
numeric_result = 0.0053

[[record]]
molecule = "CC(=O)O[C@@H]1CC2C(C)(C)C(=O)C3OC3[C@]2(C)C2CC[C@@]3(C)[C@H](c4ccoc4)OC(=O)C4OC43[C@@]21C (stereo partly specified)"
target_desc = "HepG2 Srxn1-GFP reporter cells (+30 nM CDDO-Me)"
numeric_result = 5.41

[[record]]
molecule = "N=C(N)N/N=C\\c1c(Cl)cccc1Cl"
target_desc = "HepG2 Srxn1-GFP reporter cells (+30 nM CDDO-Me)"
numeric_result = 0.55

[[record]]
molecule = "CO[C@@H]1[C@@H](OC(N)=O)[C@@H](O)[C@H](Oc2ccc3c(=O)c(NC(=O)c4ccc(O)c(CC=C(C)C)c4)c(O)oc3c2C)OC1(C)C"
target_desc = "HepG2 Srxn1-GFP reporter cells (+30 nM CDDO-Me)"
numeric_result = -0.255


Now for a further molecule.
Q: Fill in: Srxn1-GFP intensity median modified Z-score of CCC(C)CCCCC(=O)NC(CCN)C(=O)NC(C(=O)NC(CCN)C(=O)NC1CCNC(=O)C(C(C)O)NC(=O)C(CCN)NC(=O)C(CCN)NC(=O)C(CC(C)C)NC(=O)C(Cc2ccccc2)NC(=O)C(CCN)NC1=O)C(C)O (stereo unspecified) is ___
A: 0.328
